So I've got a bunch of compounds here, and I need their Bliss excess values.
# Test system: NCI-H64 (Small Cell Lung Carcinoma)
# PROCEDURE_DETAILS: Bliss excess, mean over the matrix (fraction); higher = more synergy
Quick one: just the number, no unit, thanks!

INPUT: Please look up its Bliss excess: CC(=O)c1c(C)c2cnc(Nc3ccc(N4CCNCC4)cn3)nc2n(C2CCCC2)c1=O [Palbociclib] + Cn1cnc2c(F)c(Nc3ccc(Br)cc3Cl)c(C(=O)NOCCO)cc21 [Selumetinib] (first compound max 10 µM, 7x7, partner max 10 µM)
OUTPUT: -0.014

INPUT: Please look up its Bliss excess: CN(CCO)CC[C@H](CSc1ccccc1)Nc1ccc(S(=O)(=O)NC(=O)c2ccc(N3CCC([C@@H](O)c4ccccc4-c4ccc(Cl)cc4)CC3)cc2)cc1S(=O)(=O)C(F)(F)F [AZD4320] + Cn1cnc2c(F)c(Nc3ccc(Br)cc3Cl)c(C(=O)NOCCO)cc21 [Selumetinib] (first compound max 1 µM, 7x7, partner max 3 µM)
OUTPUT: 0.0427

INPUT: Please look up its Bliss excess: NC1(C(=O)N[C@@H](CCO)c2ccc(Cl)cc2)CCN(c2ncnc3[nH]ccc23)CC1 [Capivasertib] + COc1nnc2ccc(N3CCC(c4ccc(OCCN5CCN(C)C(=O)[C@H]5C)cc4)CC3)nn12 [AZD5153] (first compound max 10 µM, 7x7, partner max 1 µM)
OUTPUT: -0.0011

INPUT: Please look up its Bliss excess: C=CCn1c(=O)c2cnc(Nc3ccc(N4CCN(C)CC4)cc3)nc2n1-c1cccc(C(C)(C)O)n1 [AZD1775] + O=C(c1cc(Cc2n[nH]c(=O)c3ccccc23)ccc1F)N1CCN(C(=O)C2CC2)CC1 [Olaparib] (first compound max 1 µM, partner max 10 µM)
OUTPUT: -0.0547

INPUT: Please look up its Bliss excess: COc1nnc2ccc(N3CCC(c4ccc(OCCN5CCN(C)C(=O)[C@H]5C)cc4)CC3)nn12 [AZD5153] + CC1(C)CCC(CN2CCN(c3ccc(C(=O)NS(=O)(=O)c4ccc(NCC5CCOCC5)c([N+](=O)[O-])c4)c(Oc4cnc5[nH]ccc5c4)c3)CC2)=C(c2ccc(Cl)cc2)C1 [Venetoclax] (first compound max 1 µM, 7x7, partner max 1 µM)
OUTPUT: -0.0455

INPUT: Please look up its Bliss excess: C[C@@H](c1ccc2nccn2c1)n1nnc2ncc(-c3cnn(C)c3)nc21 [Savolitinib] + Cc1c2c(nn1C)CSCc1cc(n(C)n1)CSc1cc(c3ccccc3c1)OCCCc1c(C(=O)O)n(C)c3c-2c(Cl)ccc13 [AZD5991] (first compound max 1 µM, 7x7, partner max 1 µM)
OUTPUT: -0.021

INPUT: Please look up its Bliss excess: CCN(CCO)CCCOc1ccc2c(Nc3cc(CC(=O)Nc4cccc(F)c4)[nH]n3)ncnc2c1 [AZD2811] + C=CCn1c(=O)c2cnc(Nc3ccc(N4CCN(C)CC4)cc3)nc2n1-c1cccc(C(C)(C)O)n1 [AZD1775] (first compound max 1 µM, partner max 1 µM)
OUTPUT: -0.0413

###

So I've got a bunch of molecules here, and I need their combination Emax values.
# Test system: NCI-H64 (Small Cell Lung Carcinoma)
# PROCEDURE_DETAILS: combination Emax (second highest fraction inhibited in the dose matrix, 72 h); higher = more inhibition; extreme values may be limits of the assay
Quick one: just the number, no unit, thanks!

INPUT: Please look up its combination Emax: O=C(c1cc(Cc2n[nH]c(=O)c3ccccc23)ccc1F)N1CCN(C(=O)C2CC2)CC1 [Olaparib] + CC1(C)CCC(CN2CCN(c3ccc(C(=O)NS(=O)(=O)c4ccc(NCC5CCOCC5)c([N+](=O)[O-])c4)c(Oc4cnc5[nH]ccc5c4)c3)CC2)=C(c2ccc(Cl)cc2)C1 [Venetoclax] (first compound max 10 µM, 7x7, partner max 1 µM)
OUTPUT: 0.166

INPUT: Please look up its combination Emax: NC1(C(=O)N[C@@H](CCO)c2ccc(Cl)cc2)CCN(c2ncnc3[nH]ccc23)CC1 [Capivasertib] + CCN(CCO)CCCOc1ccc2c(Nc3cc(CC(=O)Nc4cccc(F)c4)[nH]n3)ncnc2c1 [AZD2811] (first compound max 10 µM, 7x7, partner max 1 µM)
OUTPUT: 0.668

INPUT: Please look up its combination Emax: CN(CCO)CC[C@H](CSc1ccccc1)Nc1ccc(S(=O)(=O)NC(=O)c2ccc(N3CCC([C@@H](O)c4ccccc4-c4ccc(Cl)cc4)CC3)cc2)cc1S(=O)(=O)C(F)(F)F [AZD4320] + C=CCn1c(=O)c2cnc(Nc3ccc(N4CCN(C)CC4)cc3)nc2n1-c1cccc(C(C)(C)O)n1 [AZD1775] (first compound max 1 µM, partner max 1 µM)
OUTPUT: 1

INPUT: Please look up its combination Emax: CN(CCO)CC[C@H](CSc1ccccc1)Nc1ccc(S(=O)(=O)NC(=O)c2ccc(N3CCC([C@@H](O)c4ccccc4-c4ccc(Cl)cc4)CC3)cc2)cc1S(=O)(=O)C(F)(F)F [AZD4320] + CS(=O)(=O)CCNCc1ccc(-c2ccc3ncnc(Nc4ccc(OCc5cccc(F)c5)c(Cl)c4)c3c2)o1 [Lapatinib] (first compound max 1 µM, 7x7, partner max 10 µM)
OUTPUT: 0.995

INPUT: Please look up its combination Emax: CN(CCO)CC[C@H](CSc1ccccc1)Nc1ccc(S(=O)(=O)NC(=O)c2ccc(N3CCC([C@@H](O)c4ccccc4-c4ccc(Cl)cc4)CC3)cc2)cc1S(=O)(=O)C(F)(F)F [AZD4320] + Nc1ccn([C@@H]2O[C@H](CO)[C@@H](O)C2(F)F)c(=O)n1 [Gemcitabine] (first compound max 1 µM, 7x7, partner max 0.3 µM)
OUTPUT: 0.998

INPUT: Please look up its combination Emax: Cn1cnc2c(F)c(Nc3ccc(Br)cc3Cl)c(C(=O)NOCCO)cc21 [Selumetinib] + C[C@@H]1COCCN1C2=NC(=NC(=C2)C3(CC3)[S@](=N)(=O)C)C4=C5C=CNC5=NC=C4 [AZD6738] (first compound max 10 µM, 7x7, partner max 10 µM)
OUTPUT: 0.808

INPUT: Please look up its combination Emax: Cn1cnc2c(F)c(Nc3ccc(Br)cc3Cl)c(C(=O)NOCCO)cc21 [Selumetinib] + CC(C)n1c(=O)n(C)c2cnc3cc(F)c(-c4ccc(OCCCN5CCCCC5)nc4)cc3c21 [AZD1390] (first compound max 10 µM, 7x7, partner max 0.3 µM)
OUTPUT: 0.105

INPUT: Please look up its combination Emax: O=C(c1cc(Cc2n[nH]c(=O)c3ccccc23)ccc1F)N1CCN(C(=O)C2CC2)CC1 [Olaparib] + COc1nnc2ccc(N3CCC(c4ccc(OCCN5CCN(C)C(=O)[C@H]5C)cc4)CC3)nn12 [AZD5153] (first compound max 10 µM, 7x7, partner max 1 µM)
OUTPUT: 0.239

INPUT: Please look up its combination Emax: COc1cc2c(cc1OCCCCCOc1cc3c(cc1OC)C(=O)N1C=C(C)C[C@H]1C=N3)N=C[C@@H]1CC(C)=CN1C2=O [SG3199] + O=C(c1cc(Cc2n[nH]c(=O)c3ccccc23)ccc1F)N1CCN(C(=O)C2CC2)CC1 [Olaparib] (first compound max 0.001 µM, 7x7, partner max 10 µM)
OUTPUT: 0.0693

INPUT: Please look up its combination Emax: Cc1c2c(nn1C)CSCc1cc(n(C)n1)CSc1cc(c3ccccc3c1)OCCCc1c(C(=O)O)n(C)c3c-2c(Cl)ccc13 [AZD5991] + CS(=O)(=O)CCNCc1ccc(-c2ccc3ncnc(Nc4ccc(OCc5cccc(F)c5)c(Cl)c4)c3c2)o1 [Lapatinib] (first compound max 1 µM, 7x7, partner max 10 µM)
OUTPUT: 0.111

INPUT: Please look up its combination Emax: CN(C)CCCOc1ccc(-c2ccc3ncc4c(c3c2)n(C2CCOCC2)c(=O)n4C)cn1 [AZD0156] + C[C@@H]1COCCN1C2=NC(=NC(=C2)C3(CC3)[S@](=N)(=O)C)C4=C5C=CNC5=NC=C4 [AZD6738] (first compound max 1 µM, 7x7, partner max 10 µM)
OUTPUT: 0.732

INPUT: Please look up its combination Emax: COc1cccc(OCCCN)c1-c1cc(Nc2cnc(C#N)cn2)n[nH]1 [Prexasertib] + C=CCn1c(=O)c2cnc(Nc3ccc(N4CCN(C)CC4)cc3)nc2n1-c1cccc(C(C)(C)O)n1 [AZD1775] (first compound max 1 µM, partner max 1 µM)
OUTPUT: 0.925

INPUT: Please look up its combination Emax: C[C@@H](c1ccc2nccn2c1)n1nnc2ncc(-c3cnn(C)c3)nc21 [Savolitinib] + Cc1c2c(nn1C)CSCc1cc(n(C)n1)CSc1cc(c3ccccc3c1)OCCCc1c(C(=O)O)n(C)c3c-2c(Cl)ccc13 [AZD5991] (first compound max 1 µM, 7x7, partner max 1 µM)
OUTPUT: 0.0956

Hey, just so you know, these numbers are from the supplement of paper PMC11061612.
